subject-of-test: Type-2 angiotensin II receptor (Rattus norvegicus)
Sequence (P35351 whole entry): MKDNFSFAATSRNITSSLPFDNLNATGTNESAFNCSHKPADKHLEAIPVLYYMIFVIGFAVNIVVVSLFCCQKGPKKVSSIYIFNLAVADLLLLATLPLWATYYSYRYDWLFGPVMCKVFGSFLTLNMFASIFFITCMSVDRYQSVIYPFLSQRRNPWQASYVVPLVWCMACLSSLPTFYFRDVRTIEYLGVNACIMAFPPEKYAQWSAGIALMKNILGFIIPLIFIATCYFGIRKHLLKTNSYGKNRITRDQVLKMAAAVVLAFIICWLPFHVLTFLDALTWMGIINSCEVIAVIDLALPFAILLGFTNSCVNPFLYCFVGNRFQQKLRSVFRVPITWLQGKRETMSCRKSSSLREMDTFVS
protocol-notes: In vitro antagonist activity against angiotensin II type 2 (AT2) receptor in rat midbrain using [125I]- Sar, Ile AII.
Form field: pIC50 (one value per entry).
In simple prose, pIC50 is minus the logarithm base ten of a concentration in moles per litre.

Observe how each entry below is paired with its result.
For record C=CCN(c1ccc(Cn2c(CC)nc3c(C)cc(C)nc32)cc1C)C(C(=O)O)c1ccccc1 (centres undefined) the listed pIC50 is 5.37

For record C=CCN(c1ccc(Cn2c(CC)nc3c(C)cc(C)nc32)cc1)C(C(=O)O)c1cc(F)ccc1F (centres undefined) the listed pIC50 is 5.06

For record CCc1nc2c(C)cc(C)nc2n1Cc1ccc(N(CC2CC2)C(C(=O)O)c2ccccc2)cc1 (centres undefined) the listed pIC50 is 5.66

For record CCc1nc2c(C)cc(C)nc2n1Cc1ccc(NC(C(=O)O)c2ccccc2)c(C)c1 (centres undefined) the listed pIC50 is 4.96

For record CCCN(c1ccc(Cn2c(CC)nc3c(C)cc(C)nc32)cc1)C(C(=O)O)c1ccccc1 (centres undefined) the listed pIC50 is 6.25

For record CCc1nc2c(C)cc(C)nc2n1Cc1ccc(N(C)C(C(=O)O)c2ccccc2)c(C)c1 (centres undefined) the listed pIC50 is 4.96

For record C=CCN(c1ccc(Cn2c(CC)nc3c(C)cc(C)nc32)cc1C)C(C(=O)O)c1ccccc1C (centres undefined) the listed pIC50 is 4.96

For record CCc1nc2c(C)cc(C)nc2n1Cc1ccc(N(CC)C(C(=O)O)c2cccc(C)c2)cc1 (centres undefined) the listed pIC50 is 5.68

Continuing:
For record CCc1nc2c(C)cc(C)nc2n1Cc1ccc(N(CC)C(C(=O)O)c2ccccc2)c(C)c1 (centres undefined) the listed pIC50 is 5.07

For record CCc1nc2c(C)cc(C)nc2n1Cc1ccc(N(C)C(C(=O)O)c2ccccc2)cc1 (centres undefined) the listed pIC50 is 5.47

For record CCc1nc2c(C)cc(C)nc2n1Cc1ccc(N(CC)C(C(=O)O)c2cc(C(F)(F)F)cc(C(F)(F)F)c2)cc1 (centres undefined) the listed pIC50 is 4.92

For record CCc1nc2c(C)cc(C)nc2n1Cc1ccc(NC(C(=O)O)c2cc(C(F)(F)F)cc(C(F)(F)F)c2)cc1 (centres undefined) the listed pIC50 is 5.22

For record CCCN(c1ccc(Cn2c(CC)nc3c(C)cc(C)nc32)cc1)C(C(=O)NS(=O)(=O)c1ccccc1)c1ccccc1 (centres undefined) the listed pIC50 is 6.38

For record C=CCN(c1ccc(Cn2c(CC)nc3c(C)cc(C)nc32)cc1)C(C(=O)NS(=O)(=O)c1ccccc1)c1ccccc1 (centres undefined) the listed pIC50 is 5.54

For record CCc1nc2c(C)cc(C)nc2n1Cc1ccc(N(CC)C(C(=O)NS(=O)(=O)c2ccccc2)c2ccccc2)cc1 (centres undefined) the listed pIC50 is 6.70

For record CCc1nc2c(C)cc(C)nc2n1Cc1ccc(N(CC)C(C(=O)O)c2ccccc2)cc1 (centres undefined) the listed pIC50 is 6.13

For record CCCN(c1ccc(Cn2c(CC)nc3c(C)cc(C)nc32)cc1C)C(C(=O)O)c1ccccc1 (centres undefined) the listed pIC50 is 5.32
